- TARGET DESC: T1, human 4-1BB on the surface of HEK293 cells (HEK293-Hu4-1BB) (human, UniProt Q07011 24-255)
- T1 construct: whole, on cells; also called CD137; cell strain highly expressing human 4-1BB
- ASSAY DETAILS: FACS, HEK293-Hu4-1BB cells
Hi there, I'd appreciate the recorded pEC50 for every entry that follows.
One number for each entry, as −log10 of the molar value.

Some binders with recorded pEC50:
Query: pEC50; subject: Urelumab (positive control anti-4-1BB antibody) (antibody, V domains shown) VH: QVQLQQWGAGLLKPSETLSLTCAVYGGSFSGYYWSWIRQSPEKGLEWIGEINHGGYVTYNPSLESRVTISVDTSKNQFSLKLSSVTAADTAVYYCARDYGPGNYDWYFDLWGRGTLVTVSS VL: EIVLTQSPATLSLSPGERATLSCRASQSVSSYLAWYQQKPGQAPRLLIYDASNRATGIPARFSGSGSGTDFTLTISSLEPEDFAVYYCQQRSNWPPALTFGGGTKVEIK
8.93

Query: pEC50; subject: humanized anti-4-1BB nanobody C5_V3 linked to human IgG1-Fc (Fc fusion) QVQLVESGGGLVQPGGSLRLSCSASGFTFSSYAMSWVRQAPGKGLEWVSDINSGGESTFYEDSVKGRFTISRDNAKNTLYLQMNSLKPEDTAVYYCAKHPLTFTIATMNDYDYWGQGTLVTVSSEPKSADKTHTCPPCPAPELLGGPSVFLFPPKPKDTLMISRTPEVTCVVVDVEHEDPEVKFNWYVDGVEVHNAKTKPREEQYNSTYRVVSVLTVLHQDWLNGKEYKCKVSSKAFPAPIEKTISKAKGQPREPQVYTLPPSRDELTKNQVSLTCLVKGFYPSDIAVEWESNGQPENNYKTTPPVLDSDGSFFLYSKLTVDKSRWQQGNVFSCSVMHEALHNHYTQKSLSLSPGK
8.78

Others:
Query: pEC50; subject: humanized anti-4-1BB nanobody C5_V1 linked to human IgG1-Fc (Fc fusion) QVQLVESGGGLVQPGGSLRLSCSASGFTFSSYAMSWVRQAPGKGLEWVSDINSGGESTFYEDSVKGRFTISRDNAKNTLYLQMNSLRAEDTAVYYCARHPLTFTIATMNDYDYWGQGTLVTVSSEPKSADKTHTCPPCPAPELLGGPSVFLFPPKPKDTLMISRTPEVTCVVVDVEHEDPEVKFNWYVDGVEVHNAKTKPREEQYNSTYRVVSVLTVLHQDWLNGKEYKCKVSSKAFPAPIEKTISKAKGQPREPQVYTLPPSRDELTKNQVSLTCLVKGFYPSDIAVEWESNGQPENNYKTTPPVLDSDGSFFLYSKLTVDKSRWQQGNVFSCSVMHEALHNHYTQKSLSLSPGK
8.42
